- Test system: Molm13 cells
- Assay Info: Anti-AML activity, WST-1 viability (Example 72)
- Assay type: cell-based
- Settings: Homo sapiens; Molm 13 cells, 20% O2, 24 h of incubation, WST-1; read-out: Molm 13 IC50 20% O2
Parameter: IC50 (nM)
Respond with the bare value in nM.

What the record says about `CCOC(=O)COc1cccc2c1[n+]([O-])c1ccccc1[n+]2[O-]` : IC50 is 110

What the record says about CC(C)(C)C(=O)Oc1cccc2c1[n+]([O-])c1cccc(OC(=O)C(C)(C)C)c1[n+]2[O-] [Example 16d] : IC50 is 4050

What the record says about COc1cccc2c1[n+]([O-])c1cccc(O)c1[n+]2O [Example 5a, reference compound] : IC50 is 1400

What the record says about [O-][n+]1c2cccc(O)c2[n+]([O-])c2cccc(O)c21 [Example 1c, 1,6-dihydroxyphenazine 5,10-dioxide, reference compound] : IC50 is 300
